target.under.test: N(G),N(G)-dimethylarginine dimethylaminohydrolase 1 (Homo sapiens)
Sequence (O94760 whole entry): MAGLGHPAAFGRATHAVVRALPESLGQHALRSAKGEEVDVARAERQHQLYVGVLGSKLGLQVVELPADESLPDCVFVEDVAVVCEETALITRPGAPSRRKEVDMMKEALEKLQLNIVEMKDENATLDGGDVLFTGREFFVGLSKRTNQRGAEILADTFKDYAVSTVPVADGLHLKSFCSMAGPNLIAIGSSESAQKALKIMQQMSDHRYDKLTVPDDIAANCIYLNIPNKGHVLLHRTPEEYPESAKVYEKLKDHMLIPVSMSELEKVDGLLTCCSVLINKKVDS
experimental.protocol: Inhibition of His-tagged human DDAH1 using SMTC as substrate assessed as inhibition constant
measured.metric: Ki (µM)
Give your result in µM as a bare value.

Notebook: CC(C)(C)c1cc(C(F)(F)F)c2c(N)c(C(=O)Nc3nccs3)sc2n1 , Ki read as 9

* * *

target.under.test: UniProtKB P29474
experimental.protocol: Inhibition of human eNOS overexpressed in baculovirus infected Sf21 cells assessed as inhibition constant
measured.metric: Ki

The measured Ki that C[C@H]1CC(=N)N[C@@H]2[C@H](Cl)[C@@H]21 (racemic) showed for UniProtKB P29474 is 18 nM

* * *

target.under.test: Nitric oxide synthase 3 (Homo sapiens, UniProt P29474)
Sequence (P29474 whole entry): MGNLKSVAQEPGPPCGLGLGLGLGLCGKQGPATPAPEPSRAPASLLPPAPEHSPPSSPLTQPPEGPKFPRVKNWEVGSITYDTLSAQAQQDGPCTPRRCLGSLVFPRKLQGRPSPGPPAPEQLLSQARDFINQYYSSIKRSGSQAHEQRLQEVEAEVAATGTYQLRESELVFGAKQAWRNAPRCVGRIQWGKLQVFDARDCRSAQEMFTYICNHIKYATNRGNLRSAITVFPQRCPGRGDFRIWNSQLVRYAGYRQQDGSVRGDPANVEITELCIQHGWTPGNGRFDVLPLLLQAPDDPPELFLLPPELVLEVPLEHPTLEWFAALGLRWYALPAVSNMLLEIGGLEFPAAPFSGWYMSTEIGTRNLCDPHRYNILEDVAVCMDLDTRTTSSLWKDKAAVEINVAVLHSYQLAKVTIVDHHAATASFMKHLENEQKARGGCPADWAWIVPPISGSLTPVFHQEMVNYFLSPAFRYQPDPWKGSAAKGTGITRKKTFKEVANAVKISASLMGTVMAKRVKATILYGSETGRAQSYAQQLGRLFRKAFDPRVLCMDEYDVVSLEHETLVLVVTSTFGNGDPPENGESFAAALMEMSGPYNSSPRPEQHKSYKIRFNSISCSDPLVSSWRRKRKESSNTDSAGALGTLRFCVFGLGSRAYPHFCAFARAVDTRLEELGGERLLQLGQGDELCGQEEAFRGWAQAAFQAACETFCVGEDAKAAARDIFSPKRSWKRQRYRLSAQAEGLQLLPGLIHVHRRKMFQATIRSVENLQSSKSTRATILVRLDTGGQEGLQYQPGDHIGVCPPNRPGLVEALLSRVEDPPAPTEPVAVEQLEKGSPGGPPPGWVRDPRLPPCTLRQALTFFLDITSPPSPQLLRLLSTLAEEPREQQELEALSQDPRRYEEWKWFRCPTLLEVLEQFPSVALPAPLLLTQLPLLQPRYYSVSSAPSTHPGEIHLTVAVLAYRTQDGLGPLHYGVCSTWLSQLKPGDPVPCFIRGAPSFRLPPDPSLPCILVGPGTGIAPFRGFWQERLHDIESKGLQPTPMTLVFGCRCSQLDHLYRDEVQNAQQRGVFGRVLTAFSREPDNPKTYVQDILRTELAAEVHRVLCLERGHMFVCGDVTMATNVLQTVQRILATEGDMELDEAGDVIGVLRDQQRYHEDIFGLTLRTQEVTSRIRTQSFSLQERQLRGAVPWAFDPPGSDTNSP
experimental.protocol: Inhibition of eNOS in human DLD-1 cells assessed as reduction of L-[14C]arginine to L-[14C]citrulline conversion
Type: cell-based
measured.metric: Ki (µM)
Give your result in µM as a bare value.

Notebook: N=C(N)SCCc1cccc(CCSC(=N)N)c1 , Ki read as 9

Notebook: N=C(N)SCc1ccccc1 [BENZYL CARBAMIMIDOTHIOATE] , Ki read as 23

Notebook: CCCCSC(=N)N , Ki read as 31

Notebook: CCSC(=N)N , Ki read as 0.039

Notebook: CCCSC(=N)N , Ki read as 0.67

Notebook: CC(C)SC(=N)N , Ki read as 0.022
